Entries annotated with measured Eggs Hatched %
Test system: Meloidogyne incognita eggs
Experiment: M. incognita egg hatching
Type: in vivo
Conditions: 5 ppm, 72 hr
Procedure: Meloidogyne incognita (plant parasitic nematode) eggs were collected from tomato plant roots and were suspended in water. The solution was either diluted or concentrated to adjust the egg load to about 5000/ml. […] Egg hatching was monitored at 24, 72, 120, and 168 hr after incubation. Both moving and non-moving nematodes were counted to arrive at the number of eggs hatched. Proportion of egg hatch was calculated as the number of juveniles divided by total number of eggs. […]
Respond numerically; units are % and should not be typed.

So what does the record say about Eggs Hatched % for O=C(O)c1cc([N+](=O)[O-])ccc1NCCCc1ccccc1 [NPPB] ?
14

Next:
So what does the record say about Eggs Hatched % for O=S(=O)(O)c1cc(N=C=S)ccc1/C=C/c1ccc(N=C=S)cc1S(=O)(=O)O [DIDS, reference compound] ?
13

So what does the record say about Eggs Hatched % for CC1(C2CCCC2)Cc2cc(OCC(=O)O)c(Cl)c(Cl)c2C1=O (single isomer, unassigned; (+)) [IAA-94] ?
13

So what does the record say about Eggs Hatched % for O=C(O)c1c2ccccc2cc2ccccc12 [9-AC, anthracene-9-carboxylic acid] ?
14

Ref: patent US20080103205A1
